# Assay system: GLP-1R (Homo sapiens, UniProt P43220)
# Construct: host or cells: GLP-1R CRE-bla CHO-K1 cells
# Sequence (P43220 24-463): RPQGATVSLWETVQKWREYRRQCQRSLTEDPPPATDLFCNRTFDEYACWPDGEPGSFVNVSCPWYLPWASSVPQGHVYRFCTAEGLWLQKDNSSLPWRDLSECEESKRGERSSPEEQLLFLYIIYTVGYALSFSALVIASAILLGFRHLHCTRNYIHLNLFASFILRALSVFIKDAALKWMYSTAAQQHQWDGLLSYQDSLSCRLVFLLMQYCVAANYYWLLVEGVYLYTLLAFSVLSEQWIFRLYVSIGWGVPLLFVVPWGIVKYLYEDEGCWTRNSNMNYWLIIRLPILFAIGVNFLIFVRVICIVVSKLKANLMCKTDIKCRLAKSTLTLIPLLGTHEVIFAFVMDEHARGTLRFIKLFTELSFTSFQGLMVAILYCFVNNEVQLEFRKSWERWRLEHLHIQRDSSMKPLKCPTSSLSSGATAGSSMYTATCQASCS
# Sequence (P01275 100-127 partner limits assumed): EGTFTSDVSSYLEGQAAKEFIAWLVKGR
# Experiment: EC20 GLP-1(9-36) PAM cAMP assay: dose response of compound in the presence of fixed concentration of GLP-1(9-36)
# Type: cell-based
# Test context: GLP-1R CRE-bla CHO-K1 cells, compound dose response with fixed concentration of GLP-1(9-36), read-out: EC20 GLP-1(9-36) PAM EC50
pEC50: −log10 of the molar value.
Attribute measured: pEC50

Consider the reported pEC50 for these compounds:
CCCCc1ccc(-c2ccc(-c3cnc(-c4ccc(C[C@H](NC(=O)c5ccc(C(C)(C)C)s5)C(=O)O)cc4)nc3)c(F)c2)cc1 5.60 to 6.10
CC(C)(C)c1ccc(C(=O)N[C@@H](Cc2ccc(-c3ncc(-c4ccc(-c5cccc(C#N)c5)cc4F)cn3)cc2)C(=O)N2CC(C(=O)O)C2)s1 5.00 to 5.30
CCC[C@H]1CC[C@H](C2CCN(c3cnc(-c4ccc(C[C@H](NC(=O)c5ccc(C(C)(C)C)nc5)C(=O)N5CC(C(=O)O)C5)cc4)nc3)CC2)CC1 > 6.10
CCC[C@H]1CC[C@H](C2CCN(c3cnc(-c4ccc(C[C@H](NC(=O)c5ccc(C6CC6)cc5)C(=O)N5CC(C(=O)O)C5)cc4)nc3)CC2)CC1 > 6.10
CCC(C)(C)c1ccc(C(=O)N[C@@H](Cc2ccc(-c3ncc(-c4ccc(OCCCC(C)C)cc4)cn3)cc2)C(=O)N2CC(C(=O)O)C2)cc1 5.30 to 5.60

pEC50 measured on C[C@@H](NC(=O)[C@H](Cc1ccc(-c2ncc(/C=C/c3ccc(Cl)cc3)cn2)cc1)NC(=O)c1ccc(C(C)(C)C)s1)C(=O)O = 5.60 to 6.10

----------
# Assay system: GLP-1R (Homo sapiens, UniProt P43220)
# Construct: host or cells: GLP-1R CRE-bla CHO-K1 cells
# Experiment: EC20 GLP-1(9-36) PAM cAMP assay: dose response of compound in the presence of fixed concentration of GLP-1(9-36)
# Type: cell-based
# Test context: dose response of compound in presence of fixed concentration of GLP-1(9-36), GLP-1R CRE-bla CHO-K1 cells, read-out: EC20 GLP-1(9-36) PAM EC50
Attribute measured: EC50

Consider the reported EC50 for these compounds:
Compound	Result
CCCCCCCOc1ccc(-c2cnc(-c3ccc(C[C@H](NC(=O)c4ccc(C(C)(C)C)cc4)C(=O)N[C@@H](CC(=O)N[C@@H](CO)C(=O)O)C(=O)O)cc3)nc2)cc1 [Compound 481]	0.8 to 2.5 µM
COc1ccccc1-c1ccc(-c2cnc(-c3ccc(C[C@H](NC(=O)c4ccc(C(C)(C)C)s4)C(=O)N[C@H](C)C(=O)O)cc3)nc2)cc1 [Compound 1012]	2.5 to 5 µM

Pending compound:
EC50 measured on CC(C)Oc1ccc(-c2cnc(-c3ccc(C[C@H](NC(=O)c4ccc(C(C)(C)C)cc4)C(=O)NCCC(=O)O)cc3)nc2)cc1 [Compound 695] = 2.5 to 5 µM

----------
# Assay system: GLP-1R (Homo sapiens)
# Construct: host or cells: GLP-1R CRE-bla CHO-K1 cells
# Experiment: EC20 GLP-1(9-36) PAM cAMP assay: dose response of compound in the presence of fixed concentration of GLP-1(9-36)
# Assay type: cell-based
# Test context: dose response of compound in presence of fixed concentration of GLP-1(9-36), GLP-1R CRE-bla CHO-K1 cells, read-out: EC20 GLP-1(9-36) PAM EC50
Each entry below carries its reported EC50.

Consider the reported EC50 for these compounds:
CCCCCCCOc1ccc(-c2cnc(-c3ccc(C[C@H](NC(=O)c4ccc(C(C)(C)C)cc4)C(=O)NCCC(=O)O)cc3)nc2)cc1C1CC1 800 to 2500 nM
CC[C@H]1CC[C@H](c2ccc(-c3cnc(-c4ccc(C[C@H](NC(=O)c5ccc(OC(C)C)cc5)C(=O)N5CC(C(=O)O)C5)cc4)nc3)cc2)CC1 < 800 nM

EC50 measured on Cc1cc(C)cc(-c2ccc(-c3cnc(-c4ccc(C[C@H](NC(=O)c5ccc(C(C)(C)C)s5)C(=O)N5CC(C(=O)O)C5)cc4)nc3)c(F)c2)c1 = < 800 nM

EC50 measured on CC(C)Oc1ccc(-c2cnc(-c3ccc(C[C@H](NC(=O)c4ccc(C(C)(C)C)s4)C(=O)N4CC(C(=O)O)C4)cc3)nc2)cc1 = 800 to 2500 nM

EC50 measured on CCCCCCCOc1ccc(-c2cnc(-c3ccc(C[C@H](NC(=O)c4ccc(C(C)(C)C)cc4)C(=O)NCC(=O)NCCC(=O)O)cc3)nc2)cc1 = < 800 nM

EC50 measured on C[C@@H](NC(=O)[C@H](Cc1ccc(-c2ncc(-c3ccc(-c4ccccc4F)cc3)cn2)cc1)NC(=O)c1ccc(C(C)(C)C)s1)C(=O)O = < 800 nM

----------
Each entry below carries its reported pEC50.
# Assay system: GLP-1R (Homo sapiens, UniProt P43220)
# Construct: host or cells: GLP-1R CRE-bla CHO-K1 cells
# Experiment: EC20 GLP-1(9-36) PAM cAMP assay: dose response of compound in the presence of fixed concentration of GLP-1(9-36)
# Format: cell-based
# Test context: dose response of compound in presence of fixed concentration of GLP-1(9-36), GLP-1R CRE-bla CHO-K1 cells, read-out: EC20 GLP-1(9-36) PAM EC50
pEC50: −log10 of the molar value.

Molecule	Attribute measured	Result
CCCCCCCCOc1ccc(-c2cnc(-c3ccc(C[C@H](NC(=O)c4ccc(C(C)(C)C)s4)C(=O)N4CC[C@H](C(=O)O)C4)cc3)nc2)cc1	pEC50	> 6.10
CCCCCCCOc1ccc(-c2cnc(-c3ccc(C[C@H](NC(=O)c4ccc(C(C)(C)C)s4)C(=O)N4CCCNCC4)cc3)nc2)cc1	pEC50	5.00 to 5.30
CCCCCCCOc1ccc(-c2cnc(-c3ccc(C[C@H](NC(=O)c4ccc(C(C)(C)C)s4)C(=O)N[C@@H](CC(=O)O)C(=O)NC)cc3)nc2)cc1	pEC50	> 6.10

pEC50 measured on CCCOc1ccc(-c2cnc(-c3ccc(C[C@H](NC(=O)c4ccc(C(C)(C)C)s4)C(=O)NC(C(=O)O)C(O)c4ccccc4)cc3)nc2)cc1 (some centres unmarked) = 5.00 to 5.30

pEC50 measured on CCCCCCCOc1ccc(-c2cnc(-c3ccc(C[C@H](NC(=O)c4ccc(C(C)(C)C)cc4)C(=O)N[C@@H](CC(=O)NC4CC4)C(=O)O)cc3)nc2)cc1 = > 6.10

pEC50 measured on CCCC(C)CCOc1ccc(-c2cnc(-c3ccc(C[C@H](NC(=O)c4ccc(C(C)(C)C)cc4)C(=O)NCCC(=O)O)cc3)nc2)cc1 (some centres unmarked) = 5.60 to 6.10

pEC50 measured on C[C@@H](NC(=O)[C@H](Cc1ccc(-c2ncc(-c3ncc(-c4ccccc4)cn3)cn2)cc1)NC(=O)c1ccc(C(C)(C)C)s1)C(=O)O = 5.60 to 6.10

pEC50 measured on CC[C@H]1CC[C@H](c2ccc(-c3cnc(-c4ccc(C[C@H](NC(=O)c5ccc(C(C)C)s5)C(=O)N5CC(C(=O)O)C5)cc4)nc3)cc2)CC1 = > 6.10

pEC50 measured on Cc1cccc(Oc2ccc(-c3cnc(-c4ccc(C[C@H](NC(=O)c5ccc(C(C)(C)C)s5)C(=O)N[C@H](C)C(=O)O)cc4)nc3)cn2)c1 = 5.00 to 5.30

pEC50 measured on CCCCCCCOc1ccc(-c2cnc(-c3ccc(C[C@H](NC(=O)c4ccc(C(C)(C)C)cc4)C(=O)N4C[C@H](O)C[C@H]4C(=O)O)cc3)nc2)cc1 [Compound 491] = > 6.10

pEC50 measured on CCCCCCCOc1ccc(-c2cnc(-c3ccc(C[C@H](NC(=O)c4ccc(C(C)(C)C)cc4)C(=O)N[C@@H](Cc4ccc(O)cc4)C(=O)O)cc3)nc2)cc1 = > 6.10

----------
# Assay system: GLP-1R (Homo sapiens, UniProt P43220)
# Construct: host or cells: GLP-1R CRE-bla CHO-K1 cells
# Experiment: EC20 GLP-1(9-36) PAM cAMP assay: dose response of compound in the presence of fixed concentration of GLP-1(9-36)
# Format: cell-based
# Test context: GLP-1R CRE-bla CHO-K1 cells, compound dose response with fixed concentration of GLP-1(9-36), read-out: EC20 GLP-1(9-36) PAM EC50
Attribute measured: EC50

Consider the reported EC50 for these compounds:
Compound	EC50
CCCc1ccc(-c2ccc(-c3cnc(-c4ccc(C[C@H](NC(=O)c5ccc(C(C)(C)CC)cc5)C(=O)N5CC(C(=O)O)C5)cc4)nc3)c(F)c2)cc1	< 800 nM
CCC[C@H]1CC[C@H](C2CCN(c3cnc(-c4ccc(CC(NC(=O)c5ccc(C(C)(C)C)s5)C(=O)NS(=O)(=O)CC5CC5)cc4)nc3)CC2)CC1 (stereo partly drawn)	< 800 nM
CC(C)(C)c1ccc(C(=O)N[C@@H](Cc2ccc(-c3ncc(-c4ccc(-c5ccc(C(F)(F)F)cc5)cc4F)cn3)cc2)C(=O)N2CC(C(=O)O)C2)s1	< 800 nM
CCCCOc1ccc(C(=O)N[C@@H](Cc2ccc(-c3ncc(-c4ccc(OCCCC(C)C)cc4)cn3)cc2)C(=O)N2CC(C(=O)O)C2)cc1	800 to 2500 nM

Entry Cc1cc(F)ccc1-c1ccc(-c2cnc(-c3ccc(C[C@H](NC(=O)c4ccc(C(C)(C)C)s4)C(=O)N4CC(C(=O)O)C4)cc3)nc2)c(F)c1 , GLP-1R (Homo sapiens, UniProt P43220) data, EC50 value: 800 to 2500 nM

Entry CCC[C@H]1CC[C@H](C2CCN(c3cnc(-c4ccc(C[C@H](NC(=O)c5ccc(C(C)(C)C)s5)C(=O)N5C6CCC5[C@@H](C(=O)O)C6)cc4)nc3)CC2)CC1 (stereo partly drawn) , GLP-1R (Homo sapiens, UniProt P43220) data, EC50 value: 5000 to 10000 nM

Entry source: patent US10034886B2
